These measurements were taken from PubChem BioAssay (NCI).

# Tested on: SW-620 colon
# procedure text: NCI-60 one-dose screen, 48 h (100 = growth as untreated, 0 = no growth, -100 = all killed)
# condition parameters: 10 µM unless noted
This is part of a sample that, as a whole, favours compounds with a hit. Of some 83,000 tested, about 20% had one in any assay.
Note to self: values exactly at 70% are Y. So growth at or above 70% is Y, below is N.

Please review the following examples before continuing.
CCNC(=O)c1ccc2c(c1)nc(-c1ccc(Cl)cc1)n2-c1cc(C(C)(C)C)[nH]n1 | N
COC(=O)C(Br)(C(=O)OC)C(Br)C(Br)C(Br)c1ccccc1 (stereo not given) | N

--- query ---
hey, is growth for this one >= 70%? `O=C(O/C(=C/c1ccccc1)C(F)(F)F)c1ccccc1`
Y

* * *

# Test system: SF-268 CNS
# procedure text: NCI-60 one-dose screen, 48 h (100 = growth as untreated, 0 = no growth, -100 = all killed)
# condition parameters: 10 µM unless noted
Compounds without any hit were thinned out: in the full panel of roughly 83,000, 20% have a hit.
For each entry below, report its growth value.
Answers are plain numbers, in %.

A selection of reference data follows.
O=C1/C(=C/c2ccccc2)SC(=Nc2ccccc2)N1Nc1ccccc1 | 26.9
O=C(/C=C/c1ccco1)c1ccccc1O | 99.4
COc1cc2c(c(OC)c1O)C(=O)C(OC)C(c1ccc(O)c(O)c1)O2 (stereo unspecified) | 24.6

Items follow; give growth for each.
1. O=C1CCCN1C1CCN2CCCc3cccc1c32 (stereo unspecified)
2. S=C(Cc1ccccc1)N1CCN(c2ccccc2Cl)CC1
3. ClC1=NC(Cl)C(Cl)=N/C1=N\c1ncn[nH]1 (stereo unspecified)

[112, 95.2, 33.8]

* * *

# Tested on: SK-MEL-5 melanoma
# procedure text: NCI-60 one-dose screen, 48 h
# condition parameters: 10 µM unless noted
The panel holds about 83,000 compounds, 20% with a hit somewhere; the sample as a whole holds those more often. Active and inactive are the calls of the source. How the source made its calls: active means growth percent below 10; inactive means the rest.
Give one outcome, nothing more. List: True (active), False (inactive)

Recorded results for 2 molecules are shown here.
COc1ccc2nc3cc(Cl)ccc3c(NC(=O)CSc3ccc(Cl)cc3)c2c1 | True
COc1cc2c(cc1OC)-c1cc(OC)c(OC)cc1C(CN(C)C)C2 (stereo unspecified) | False

Any idea what this test logged for `O=C1/C=C/[C@@H](O)[C@@H]2C[C@@H](O)C[C@H]2/C=C/CCC[C@H]([C@@H](O)CO)O1` ?
True

* * *

# System: BT-549 breast
# procedure text: NCI-60 one-dose screen, 48 h (100 = growth as untreated, 0 = no growth, -100 = all killed)
# condition parameters: 10 µM unless noted
The panel holds about 83,000 compounds, 20% with a hit somewhere; the sample as a whole holds those more often.
attribute measured: growth (%)
Numbers only, in %.

CCCCCCCCCCCC1=NC(C)(C)CN1C(C)C | 77.9
COc1cc(/C=C/c2cc(/C=C/c3ccc(O)c(OC)c3)n(C(=O)Nc3ccc(F)c(Cl)c3)n2)ccc1O | -24.2
N=C(N)c1ccc(NCCNc2ccc(C(=N)N)cc2)cc1 | 133

Quick request: growth for each listed item, please.
1. C=CCN1C(=O)/C(=c2\sc3n(c2=O)C2C(NN=3)N(CC)C(=O)N2CC)c2ccccc21 (centres undefined)
2. CCCCSc1ncnc2c1ncn2C1CCCCO1 (centres undefined)
3. COc1cc(C2CC(c3ccc(Cl)cc3)=NN2C(C)=O)ccc1Oc1nc2c(c(=O)n(C)c(=O)n2C)n1C (centres undefined)
4. Cc1c2c(cc3c1[nH]c1ccccc13)C=NCC2

25
107
83.2
79.6

// batch mode: one growth value per listed entry
1. O/N=C1\c2ccccc2-c2ccc(Br)cc21
2. CC1(C)CC(=O)c2cc3c(N)c(C(=O)Nc4ccc(Cl)cc4)sc3nc2C1
3. CCC1=CC2CN(C1)Cc1c([nH]c3ccccc13)[C@@](C(=O)OC)(c1cc3c(cc1OC)N(C)[C@H]1[C@@](O)(C(=O)OC)[C@H](OC(C)=O)[C@]4(CC)C=CCN5CC[C@]31[C@@H]54)C2 (some centres undefined)
4. C#CCNc1nc(NCCNC(=O)CCl)nc(N(C)CCCCc2ccccc2)n1
5. COc1ccc2[nH]cc(C3(c4c[nH]c5ccc(OC)cc45)C(=O)Nc4ccc(F)cc43)c2c1
6. O=S1(=O)NCCN1CCNc1nccc(-c2c(-c3cccc(O)c3)nc3sccn23)n1
7. COc1cc(-c2nc(-c3ccc(-c4nc5ccc(F)cc5[nH]4)cc3)no2)cc(OC)c1OC
8. COc1ccccc1-[n+]1cc(-c2ccc(-c3ccccc3)cc2)n2c1CCCCC2

115
125
-27.2
76.3
80.1
135
35.7
-1.37

For each of the items listed, what is its growth?
1. Cc1ccccc1C1CC(=O)c2ccccc2C1C (centres undefined)
2. COc1cc(OC)c2sc(-c3ccc(-n4cncc4-c4ccc(OC)c(N)c4)cc3)nc2c1
3. CC(C)(CCc1ccccn1)C(=O)CCCc1ccccn1
4. Cc1ccc(C(=O)CC(=O)C(F)(F)C(F)(F)C(F)(F)F)s1
5. Cc1cccc(/C=N/n2c(-c3ccc(Cl)cc3)nc3c(Br)cc(Br)cc3c2=O)c1
6. CNC(=O)c1c(NC(=O)c2ccc(C(C)C)cc2)sc2c1CCC(=O)C2

1: 131; 2: 75.2; 3: 105; 4: 103; 5: 88; 6: -11.2

List reported growth for each of these compounds:
1. COc1ccc(Oc2nc(Nc3ccc(N4CCOCC4)cc3)ncc2NC(=O)Nc2cccc(OC)c2)cc1
2. COc1ccc(-c2cc(C(=O)Nc3ccc(Br)cc3)nc3[nH]c(=O)sc23)cc1
3. COc1cc(/C=C2\CN(C(=O)OC(C)(C)C)C/C(=C\c3ccc(O)c(OC)c3)C2=O)ccc1O
4. O=S1(=O)NCCCN1CCNc1nccc(-c2c(-c3cccc(O)c3)nc3sccn23)n1
5. CC(C)(C)[Si](C)(C)OC1[C@@H](CNC(N)=O)O[C@@H](n2cnc3c(NC(=O)Nc4ccccc4)ncnc32)[C@H]1O[Si](C)(C)C(C)(C)C (some centres undefined)

1: 34.3; 2: 47; 3: 85.4; 4: 86; 5: 80.1

* * *

# Test system: HCC-2998 colon
# procedure text: NCI-60 one-dose screen, 48 h (100 = growth as untreated, 0 = no growth, -100 = all killed)
# condition parameters: 10 µM unless noted
Compounds without any hit were thinned out: in the full panel of roughly 83,000, 20% have a hit.
Record form. Attribute: growth. Fill in for each entry.
Give bare numbers, in %.

# annotated cases, reported growth shown
CC1=CC(=O)OC1C/C=C(\C)CCC1[C@@]2(C)CCC[C@@](C)(C(=O)O)C2CC[C@@]1(C)O (stereo partly specified) | 44
CCN(CC)CCNC(=O)n1cc(-c2ccncc2)c(-c2ccc(Cl)c(OC)c2)n1 | 99
NC(=O)c1ccc[n+](Cc2ccccc2)c1 | 102
COc1cc(C2CC(c3cccc(Nc4ccnc5cc(Cl)ccc45)c3)=NN2C=O)cc(OC)c1OC (stereo unspecified) | 37.4
C=CC(=O)N1CN(C(=O)C=C)CN(C(=O)C=C)C1 | 101

Consider the record given below.
For `Brc1ccsc1Br` , what is its reported growth?
105

* * *

# Test system: SNB-19 CNS
# procedure text: NCI-60 one-dose screen, 48 h
# condition parameters: 10 µM unless noted
# Protocol: Growth inhibition of the SNB-19 human tumor cell line is measured as a screen for anti-cancer activity. Cells are grown in 96 well plates and exposed to the test compound for 48 hours. Compounds are tested at a single concentration, which is 10^-5 M for most compounds. The reported endpoint is percent growth (GI% or GIPRCNT), where numbers from 0 - 100% represent growth inhibition, and numbers from -100% - 0 represent cell death. For example, a value of 40 represents 60% growth inhibition. […]
The panel holds about 83,000 compounds, 20% with a hit somewhere; the sample as a whole holds those more often. Calls of active or inactive are those of the source. Rule for the calls: active = growth percent below 10; inactive = the rest.
Would you mind answering with one of these outcomes? y for active, n for inactive

Completed entries (count: 4):
Clc1cc(Cl)cc(-c2cnc3nonc3n2)c1 | n
O=C(CCCCCCN1CC(=O)N2[C@@H](c3ccc(Cl)c(Cl)c3)c3[nH]c4ccccc4c3C[C@H]2C1=O)NO | n
CCN1CCN(Cc2ccc(NC(=O)Nc3ccc(-n4ccc5c(NC(=O)c6ccccc6)nccc54)cc3)cc2C(F)(F)F)CC1 | y
COc1cc(OC)c2sc(-c3ccc(-n4cncc4-c4ccc(OC)c(N)c4)cc3)nc2c1 | n

Next up:
Hello, I am checking results. What call was entered for `O=S1(=O)NCCCN1CCNc1nccc(-c2c(-c3cccc(O)c3)nc3sccn23)n1` ?
n

* * *

# Test system: MDA-MB-231 breast
# procedure text: NCI-60 one-dose screen, 48 h (100 = growth as untreated, 0 = no growth, -100 = all killed)
# condition parameters: 10 µM unless noted
The panel holds about 83,000 compounds, 20% with a hit somewhere; the sample as a whole holds those more often.
attribute measured: growth (%)
Numbers only, in %.

Consider the worked cases shown below.
O=c1nc(-c2ccccc2)c2cc(-c3ccc(N4CCOCC4)cc3)ccc2[nH]1 | 78.4
C(=Nc1ccc(-c2ccc(N=Cc3ccccc3)cc2)cc1)c1ccccc1 | 88.2
C=C1C(=O)O[C@H]2[C@H]1CC/C(COC(=O)NCc1cn(C)c3ccccc13)=C\CC[C@@]1(C)O[C@@H]21 | -8.6
CCCCCCCCCCCCCCCCCC1=NCCN1CCO | 58.8
O=C1Nc2ccc(Cl)cc2/C1=C\c1c(-c2ccc(F)cc2)nc2ccccn12 | 45.9

Could you now look at the following molecule, please?
Which growth value belongs to `Nc1c(N)c2ccccc2c2ccccc12` ?
85.3
